Test system: HT22 cells
Assay: In vitro neuroprotective activity against glutamate-induced cell death (MTS cell viability)
Format: cell-based, mouse
Details: Mus musculus, HT-22; HT22 cells, 10 mM glutamate, 24 hrs, MTS; concentration producing 50% protection; read-out: Protection PC50
REPORTED_PROPERTY: EC50 (nM)
Answer in nM, number only, no unit symbol.

>>> measured_number("CC1=C(C)C(=O)c2ccccc2C1=O")
118

Ask: Consider the compound CCCNC1=CC(=O)c2ccccc2C1=O and give its measured EC50.
Reply: 328

Ask: Consider the compound O=C1C=C(NCCc2ccccc2)C(=O)c2ccccc21 and give its measured EC50.
Reply: 584

Ask: Consider the compound COC(=O)NC1=CC(=O)c2ccccc2C1=O and give its measured EC50.
Reply: 69

Ask: Consider the compound CNC1=CC(=O)c2ccccc2C1=O and give its measured EC50.
Reply: 1350

Ask: Consider the compound O=C(Cc1ccc(-c2ccccc2)cc1)NC1=CC(=O)c2ccccc2C1=O and give its measured EC50.
Reply: 890

Ask: Consider the compound O=C1C=C(NCc2ccc(Cl)cc2)C(=O)c2ccccc21 and give its measured EC50.
Reply: 59

Ask: Consider the compound O=C1C=C(NCc2ccncc2)C(=O)c2ccccc21 and give its measured EC50.
Reply: 72

Ask: Consider the compound C#CCNC1=CC(=O)c2ccccc2C1=O and give its measured EC50.
Reply: 120
